target: Ephrin type-A receptor 1 (Homo sapiens); also: in the data inactive means no Kd found up to 30 µM
Sequence (P21709 whole entry): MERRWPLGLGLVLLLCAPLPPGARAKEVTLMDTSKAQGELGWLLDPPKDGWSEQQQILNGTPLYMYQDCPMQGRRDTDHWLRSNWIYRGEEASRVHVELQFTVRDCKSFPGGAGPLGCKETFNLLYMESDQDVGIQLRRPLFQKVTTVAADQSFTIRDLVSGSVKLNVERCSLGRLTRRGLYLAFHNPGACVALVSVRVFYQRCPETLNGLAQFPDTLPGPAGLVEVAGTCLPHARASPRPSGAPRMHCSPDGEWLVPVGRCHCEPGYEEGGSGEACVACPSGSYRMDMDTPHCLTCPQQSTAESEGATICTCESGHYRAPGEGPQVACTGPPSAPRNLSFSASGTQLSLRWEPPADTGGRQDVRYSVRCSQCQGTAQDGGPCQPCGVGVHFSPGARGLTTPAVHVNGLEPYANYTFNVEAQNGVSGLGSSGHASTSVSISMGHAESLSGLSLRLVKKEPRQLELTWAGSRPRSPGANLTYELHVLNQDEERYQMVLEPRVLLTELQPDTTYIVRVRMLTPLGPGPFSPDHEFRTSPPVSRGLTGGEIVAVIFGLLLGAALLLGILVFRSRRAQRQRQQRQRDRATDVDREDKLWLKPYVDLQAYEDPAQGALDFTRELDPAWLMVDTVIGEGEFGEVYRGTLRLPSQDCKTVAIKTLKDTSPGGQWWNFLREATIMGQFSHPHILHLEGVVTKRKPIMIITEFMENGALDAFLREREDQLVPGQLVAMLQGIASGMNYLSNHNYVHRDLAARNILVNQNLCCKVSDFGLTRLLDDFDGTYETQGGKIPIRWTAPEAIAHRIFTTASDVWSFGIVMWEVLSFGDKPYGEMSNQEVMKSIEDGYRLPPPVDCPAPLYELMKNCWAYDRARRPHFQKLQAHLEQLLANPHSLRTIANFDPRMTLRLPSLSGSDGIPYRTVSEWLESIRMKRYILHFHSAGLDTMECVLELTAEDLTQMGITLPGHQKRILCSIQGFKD
Active and inactive are the calls of the source.
Answer with one of the outcomes given here: active, inactive

Q. Could you kindly confirm the outcome this assay logged for `FC(F)(F)c1ccc(/C=C/c2nc(COc3ccc(CCCCn4ccnn4)cc3)co2)cc1` ?
A. inactive

Q. Please indicate how the test categorized `COc1cc(Nc2ncc3c(n2)-c2ccc(Cl)cc2C(c2c(F)cccc2OC)=NC3)ccc1C(=O)O` .
A. inactive

Q. Record lookup: outcome of this test for C=CC(=O)Nc1cc2c(Nc3ccc(F)c(Cl)c3)ncnc2cc1C#CC(C)(C)N1CCN(C)CC1 [AV-412 FREE BASE] ?
A. inactive

Q. # outcome recorded in this test, key = `Cc1nc2cc(-c3nn(C(C)C)c4ncnc(N)c34)ccc2o1`
A. inactive

Q. Tell me the recorded outcome of this test for `O=C(Cc1ccc(-c2ccc(OCCN3CCOCC3)cc2)cn1)NCc1ccccc1` .
A. inactive

Q. Which outcome did this test record for the compound `CC(=O)NCC(=O)N1[C@@H]2CC[C@H]1c1ccc(Nc3ncc(C(F)(F)F)c(NC4CCC4)n3)cc12` ?
A. inactive

Q. Outcome logged for `COCc1c(-c2ccc(NC(=O)Nc3cc(C(F)(F)F)ccc3F)c(F)c2)c2c(N)ncnn2c1CN1CCOCC1` in this assay:
A. inactive

Q. Can you look up the reported call for `CCS(=O)(=O)c1cccc(-c2cc(C(=O)NC3CCN(C)CC3)c(C)c3[nH]c4ncc(C)cc4c23)c1` for me?
A. inactive

Q. What did the test return for `C[C@@H](Oc1cc(C(=O)Nc2ccc(C(=O)N3CCN(C)CC3)cc2)nnc1N)c1c(Cl)ccc(F)c1Cl` ?
A. inactive

Q. Look up the recorded call for `CNC(=O)c1nn(C)c2c1C(C)(C)Cc1cnc(Nc3ccc(N4CCN(C)CC4)cc3)nc1-2` in this test.
A. inactive

Q. // param item: `Cc1nc2cc(-n3ncc(C(=O)c4cc5ccccc5[nH]4)c3N)ccc2[nH]1` ; yields the recorded call
A. inactive

Q. Tell me the recorded outcome of this test for `CNC(=O)c1cccc2cc(Oc3ccnc4cc(OCC5(N)CC5)c(OC)cc34)ccc12` .
A. inactive

Q. Which outcome was assigned to `CC(=O)c1cnc2ccc(-c3cc(Cl)c(O)c(Cl)c3)nc2c1N[C@H]1CC[C@H](CN(C)C)CC1` in this test?
A. active

Q. Tell me the assay call for `Cn1ncc(Cl)c1-c1cc(C(=O)N[C@H](CN)Cc2ccc(F)c(F)c2)oc1Cl` please.
A. inactive

Q. Would you mind telling me which call this test gave `CCNC(=O)C#Cc1ccc2c(c1)NC(=O)/C2=C(\Nc1ccc(CN(C)C)cc1)c1ccccc1` ?
A. inactive

Q. Name the outcome recorded for `C#Cc1cccc(Nc2ncnc3cc(OC)c(OCCCCCCC(=O)NO)cc23)c1` in the assay.
A. inactive

* * *

target: Mitogen-activated protein kinase 8 (Homo sapiens, UniProt P45983); also: in the data inactive means no Kd found up to 30 µM
Sequence (P45983 whole entry): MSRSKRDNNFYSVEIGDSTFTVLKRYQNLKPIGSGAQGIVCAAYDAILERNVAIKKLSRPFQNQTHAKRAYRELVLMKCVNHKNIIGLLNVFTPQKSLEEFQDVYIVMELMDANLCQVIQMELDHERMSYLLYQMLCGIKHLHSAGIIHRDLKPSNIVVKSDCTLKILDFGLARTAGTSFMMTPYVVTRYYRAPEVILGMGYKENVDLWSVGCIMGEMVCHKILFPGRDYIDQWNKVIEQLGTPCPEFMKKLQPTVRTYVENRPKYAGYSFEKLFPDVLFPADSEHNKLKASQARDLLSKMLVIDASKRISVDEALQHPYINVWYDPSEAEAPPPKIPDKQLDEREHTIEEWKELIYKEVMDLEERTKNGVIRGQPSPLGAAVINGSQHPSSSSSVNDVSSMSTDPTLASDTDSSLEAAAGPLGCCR
Where a name gives a salt, the structure may show the parent alone. Calls of active or inactive are those of the source.
Respond using exactly one of the listed classes: True = active, False = inactive

Q. For `Cc1cccc(-c2nn3c(c2-c2ccnc4ccc(C(N)=O)cc24)CCC3)n1` , which call appears in the assay record?
A. False

Q. Look up the recorded call for `CCOc1cc2ncc(C#N)c(Nc3ccc(F)c(Cl)c3)c2cc1NC(=O)/C=C/CN(C)C` in this test.
A. False

Q. Outcome? `CNC(=O)c1cccc2cc(Oc3ccnc4cc(OCC5(N)CC5)c(OC)cc34)ccc12`
A. False

Q. Assay outcome for `C[C@@H](N)c1ccc(C(=O)Nc2ccnc3[nH]ccc23)cc1` : what was it?
A. False

Q. Name the outcome recorded for O=c1[nH]ccc2cc(OC3CCNCC3)ccc12 [SAR-407899 FREE BASE] in the assay.
A. False

Q. Each compound tested received a call. Report the one for `CCS(=O)(=O)c1cccc(-c2cc(C(=O)NC3CCN(C)CC3)c(C)c3[nH]c4ncc(C)cc4c23)c1` .
A. False

Q. Look up the recorded call for `COc1ccc(S(=O)(=O)N(C(C)=O)c2ccccc2/C=C/c2cc[n+]([O-])cc2)cc1` in this test.
A. False

Q. // param item: O=C1NC(=O)[C@@H](c2cn3c4c(cccc24)CCC3)[C@@H]1c1c[nH]c2ccccc12 [TIVANTINIB] ; yields the recorded call
A. False

Q. // param item: CCS(=O)(=O)N1CCN(c2ccc(Nc3ncc(C(N)=O)c(NC4CC4)n3)cc2)CC1 [Cerdulatinib Hydrochloride] ; yields the recorded call
A. True

Q. Which outcome was entered for the compound `CO[C@H]1C[C@@H]2CC[C@@H](C)[C@@](O)(O2)C(=O)C(=O)N2CCCC[C@H]2C(=O)O[C@H]([C@H](C)C[C@@H]2CC[C@@H](OP(C)(C)=O)[C@H](OC)C2)CC(=O)[C@H](C)/C=C(\C)[C@@H](O)[C@@H](OC)C(=O)[C@H](C)C[C@H](C)/C=C/C=C/C=C/1C` in this test?
A. False

Q. Each compound tested received a call. Report the one for `COc1cc([C@@H]2c3cc4c(cc3[C@H](O)[C@H]3COC(=O)[C@@H]23)OCO4)cc(OC)c1OC` .
A. False

Q. Please indicate how the test categorized `O=C(Cc1ccc(-c2ccc(OCCN3CCOCC3)cc2)cn1)NCc1ccccc1` .
A. False

Q. Given `Cc1nc2cc(-c3nn(C(C)C)c4ncnc(N)c34)ccc2o1` , state the outcome it received in this test.
A. False

Q. Give the logged outcome of this assay for the following compound: `COc1cc2c(Nc3ccc(Cl)c(Cl)c3F)ncnc2cc1OC[C@@H]1C[C@@H]2CN(C)C[C@@H]2C1`
A. False

Q. Check the results log: what was the call for `NC(=O)Nc1cc(-c2cccc(F)c2)sc1C(=O)N[C@H]1CCCNC1` ?
A. False

* * *

Active and inactive are the calls of the source.
Dual specificity testis-specific protein kinase 2 (Homo sapiens): recorded Kd for assorted compounds; also: in the data inactive means no Kd found up to 30 µM
Sequence (Q96S53 whole entry): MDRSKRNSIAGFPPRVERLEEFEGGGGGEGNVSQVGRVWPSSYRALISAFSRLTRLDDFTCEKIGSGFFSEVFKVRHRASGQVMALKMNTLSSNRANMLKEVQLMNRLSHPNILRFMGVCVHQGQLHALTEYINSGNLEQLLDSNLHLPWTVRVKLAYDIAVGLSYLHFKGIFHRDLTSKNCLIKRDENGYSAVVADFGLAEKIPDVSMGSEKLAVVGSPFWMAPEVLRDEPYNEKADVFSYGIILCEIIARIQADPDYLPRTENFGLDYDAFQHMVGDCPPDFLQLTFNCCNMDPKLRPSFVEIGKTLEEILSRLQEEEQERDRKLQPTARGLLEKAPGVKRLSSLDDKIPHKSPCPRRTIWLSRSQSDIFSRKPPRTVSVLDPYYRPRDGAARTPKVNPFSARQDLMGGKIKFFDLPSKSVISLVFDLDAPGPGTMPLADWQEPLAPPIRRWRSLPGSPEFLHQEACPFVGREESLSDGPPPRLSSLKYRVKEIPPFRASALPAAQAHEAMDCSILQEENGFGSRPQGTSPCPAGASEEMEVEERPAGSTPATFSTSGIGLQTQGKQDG

Note to self: Kd recorded for Cn1cc(C2=C(c3cn(C4CCN(Cc5ccccn5)CC4)c4ccccc34)C(=O)NC2=O)c2ccccc21 [ENZASTAURIN] was > 30 µM (inactive)

# compound NC(=O)Nc1cc(-c2cccc(F)c2)sc1C(=O)N[C@H]1CCCNC1 [AZD-7762] ; its Kd = > 30 µM (inactive)

The recorded Kd for N#CC1(c2ccc(NC(=O)c3cccnc3NCc3ccncc3)cc2)CCCC1 [RIVOCERANIB] is > 30 µM (inactive)

Reported Kd for O=C(Cc1ccc(-c2ccc(OCCN3CCOCC3)cc2)cn1)NCc1ccccc1 [TIRBANIBULIN] was > 30 µM (inactive)

So, FC(F)(F)c1ccc(/C=C/c2nc(COc3ccc(CCCCn4ccnn4)cc3)co2)cc1 [MUBRITINIB] ? Its Kd was > 30 µM (inactive)

GET /value?item= `C[C@H]1CNCCCN1S(=O)(=O)c1cccc2cncc(F)c12` &field=Kd returns > 30 µM (inactive)

GET /value?item= O=c1[nH]ccc2cc(OC3CCNCC3)ccc12 [SAR-407899 FREE BASE] &field=Kd returns > 30 µM (inactive)

Form: compound = CC(C)(C)c1nc(-c2cccc(NS(=O)(=O)c3c(F)cccc3F)c2F)c(-c2ccnc(N)n2)s1 [DABRAFENIB] ; Kd = > 30 µM (inactive)

The recorded Kd for O=C1NC(=O)[C@@H](c2cn3c4c(cccc24)CCC3)[C@@H]1c1c[nH]c2ccccc12 [TIVANTINIB] is > 30 µM (inactive)

* * *

target: Cyclin-G-associated kinase (Homo sapiens); also: in the data inactive means no Kd found up to 30 µM
Sequence (O14976 whole entry): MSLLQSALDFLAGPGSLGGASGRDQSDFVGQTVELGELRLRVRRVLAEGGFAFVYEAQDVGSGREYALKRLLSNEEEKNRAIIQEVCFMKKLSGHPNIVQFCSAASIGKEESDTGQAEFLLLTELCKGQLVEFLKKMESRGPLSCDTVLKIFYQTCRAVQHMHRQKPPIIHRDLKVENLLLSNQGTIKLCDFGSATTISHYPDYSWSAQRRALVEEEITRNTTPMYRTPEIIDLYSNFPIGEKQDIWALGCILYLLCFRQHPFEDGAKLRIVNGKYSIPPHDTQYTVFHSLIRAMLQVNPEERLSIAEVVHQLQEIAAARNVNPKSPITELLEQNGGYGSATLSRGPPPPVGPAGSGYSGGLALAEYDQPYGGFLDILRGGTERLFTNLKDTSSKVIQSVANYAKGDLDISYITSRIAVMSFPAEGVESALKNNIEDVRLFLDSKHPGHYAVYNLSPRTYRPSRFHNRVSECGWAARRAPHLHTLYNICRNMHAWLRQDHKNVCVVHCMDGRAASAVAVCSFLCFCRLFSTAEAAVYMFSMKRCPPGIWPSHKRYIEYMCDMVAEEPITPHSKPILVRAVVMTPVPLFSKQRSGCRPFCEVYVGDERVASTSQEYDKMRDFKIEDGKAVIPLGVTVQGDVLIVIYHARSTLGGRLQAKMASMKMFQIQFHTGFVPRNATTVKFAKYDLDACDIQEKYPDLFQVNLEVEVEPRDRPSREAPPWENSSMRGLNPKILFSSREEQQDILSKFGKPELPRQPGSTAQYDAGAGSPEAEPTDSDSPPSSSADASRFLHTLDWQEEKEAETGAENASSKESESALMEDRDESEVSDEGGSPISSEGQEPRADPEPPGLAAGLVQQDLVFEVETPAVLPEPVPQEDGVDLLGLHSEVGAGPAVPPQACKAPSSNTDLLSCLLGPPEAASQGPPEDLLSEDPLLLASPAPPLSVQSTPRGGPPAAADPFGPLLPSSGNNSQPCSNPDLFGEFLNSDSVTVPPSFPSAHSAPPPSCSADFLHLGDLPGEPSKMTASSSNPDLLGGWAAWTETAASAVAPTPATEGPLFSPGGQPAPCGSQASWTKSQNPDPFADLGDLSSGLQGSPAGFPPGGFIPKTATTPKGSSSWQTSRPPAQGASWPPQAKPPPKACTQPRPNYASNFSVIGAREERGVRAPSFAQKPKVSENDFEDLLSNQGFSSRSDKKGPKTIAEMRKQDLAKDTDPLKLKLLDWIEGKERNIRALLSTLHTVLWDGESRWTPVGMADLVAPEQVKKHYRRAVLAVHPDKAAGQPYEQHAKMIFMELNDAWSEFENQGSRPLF
Active and inactive are the calls of the source.
Your response should consist of one outcome taken from active, inactive

Q. Returns: the outcome recorded for `Cc1nc2cc(-n3ncc(C(=O)c4cc5ccccc5[nH]4)c3N)ccc2[nH]1` in this assay.
A. inactive

Q. State the result this test recorded for `C#Cc1cccc(Nc2ncnc3cc(OC)c(OCCCCCCC(=O)NO)cc23)c1` .
A. active

Q. Field: outcome | Entry: `CCS(=O)(=O)c1cccc(-c2cc(C(=O)NC3CCN(C)CC3)c(C)c3[nH]c4ncc(C)cc4c23)c1`
A. inactive

Q. Write down the call the test reported for this compound. Item: `Cn1cc(-c2cnn3c(N)c(Br)c([C@@H]4CCCNC4)nc23)cn1`
A. inactive

Q. Per the records of this test, what outcome belongs to `CO[C@H]1C[C@@H]2CC[C@@H](C)[C@@](O)(O2)C(=O)C(=O)N2CCCC[C@H]2C(=O)O[C@H]([C@H](C)C[C@@H]2CC[C@@H](OP(C)(C)=O)[C@H](OC)C2)CC(=O)[C@H](C)/C=C(\C)[C@@H](O)[C@@H](OC)C(=O)[C@H](C)C[C@H](C)/C=C/C=C/C=C/1C` ?
A. inactive

Q. Any idea what this test logged for `Cc1cnc(NC(=O)Nc2cc(Br)c(C)cc2OC[C@@H]2CNCCO2)cn1` ?
A. inactive

Q. # fetch the recorded call for `COc1c(OCCCN2CCOCC2)ccc2c1N=C(NC(=O)c1cnc(N)nc1)N1CCN=C21` here
A. inactive

Q. So what was the verdict on `CCn1c(C(=O)N(C2CC2)C2CC2)cc2c3c(ncn3C)c(Nc3cc(C)n(C)n3)nc21` in this test?
A. inactive

Q. # fetch the recorded call for `FC(F)(F)c1ccc(/C=C/c2nc(COc3ccc(CCCCn4ccnn4)cc3)co2)cc1` here
A. inactive

Q. So what was the verdict on `CN(C[C@@H]1COCCO1)S(=O)(=O)Nc1ccc2ccc3ncc(-c4cnn(C)c4)cc3c(=O)c2c1` in this test?
A. inactive

Q. What outcome does the record of this test show for `COc1cc2c(Nc3ccc(Cl)c(Cl)c3F)ncnc2cc1OC[C@@H]1C[C@@H]2CN(C)C[C@@H]2C1` ?
A. active

Q. // outcome(item) with item = `Cc1nc2cc(-c3nn(C(C)C)c4ncnc(N)c34)ccc2o1`
A. inactive

Q. Hey, what did the test say about `Cc1cc(C(=O)NOCCO)c(Nc2ccc(I)cc2F)n(C)c1=O` ?
A. inactive

Q. I'd appreciate the recorded outcome for `CC(C)c1cc(CNc2nc(Nc3cc(C4CC4)[nH]n3)cc(N3CCN(C)CC3)n2)on1` from this test.
A. inactive

Q. Please share the test call associated with `N#CC1(c2ccc(NC(=O)c3cccnc3NCc3ccncc3)cc2)CCCC1` .
A. inactive

Q. Record request — test call for `NC1(c2ccc(-c3nc4ccn5c(=O)[nH]nc5c4cc3-c3ccccc3)cc2)CCC1`
A. inactive
